Data credit: the nanobody polyreactivity screen of Harvey et al. (2022)

TEST_DETAILS: yeast display, Sf9 membrane polyspecificity reagent, FACS + sequencing; frameworks hold sequencing errors
OBSERVED_PROPERTY: polyreactivity (PSR sort gate)

Recorded results for 4 sequences are shown here.
BIOPOLYMER_SEQUENCE: QVQLVESGGGLVQAGGSLRLSCAASGSIFFDGNAMGWYRQAPGKERELVAAISVSGGSTYYADSVKGRFTISRDNAKNTVYLQMNSVKPEDTAVYYCAKYPSKSYVPGDYWGQGTQVTVSS
polyreactivity (PSR sort gate): low polyreactivity
//
BIOPOLYMER_SEQUENCE: QVQLVESGGGLVQAGGSLRLSCAASGRTFWRYAMGWYRQAPGKERELVAAITSGGGSTYYADSVKGRFTISRDNAKNTVYLQMNSLKPEDTAVYYCNRAGRGRSFKGDYWGQGTQVTVSS
polyreactivity (PSR sort gate): high polyreactivity
//
BIOPOLYMER_SEQUENCE: QVQLVESGGGLVQAGGSLRLSCAASGSIIYQYAMGWYRQAPGKERELVAAITWSGGSTYYADSVKGRFTISRDNAKNTVYLQMNSLKPEDTAVYYCAAYAYGGRINGYRTYRYNYWGQGTQVTVSS
polyreactivity (PSR sort gate): high polyreactivity
//
BIOPOLYMER_SEQUENCE: QVQLVESGGGLVQAGGSLRLSCAASGSTFVWNAMGWYRQAPGKERELVATITLSTGSTYYADSVKGRFTISRDNAKNTVYLQMNSLKPEDTAVYYCNTEIYVDIISDYGYWGQGTQVTVSS
polyreactivity (PSR sort gate): low polyreactivity

// next entry
Please fill in: polyreactivity (PSR sort gate) reported for QVQLVESGGGLVQARGSLRLSCASSGITFWKYTMGCYRQAPGKESELVASIRIGGSTYYADSVKGRFTISRDNAKNTVYLQMNSLKPEDTAVYYCAAKGIYGLQGSPRSGYYYWGQGTQVTVSS = high polyreactivity

====

TEST_DETAILS: yeast display, Sf9 membrane polyspecificity reagent, FACS + sequencing; frameworks hold sequencing errors
OBSERVED_PROPERTY: polyreactivity (PSR sort gate)

Here are 4 sequences together with their reported answers.
BIOPOLYMER_SEQUENCE: QVQLVESGGGLVLAGGRLRLSCAASGRNFYGYAMGWYRQAPGKERELVAAISYGGGSTYYADSVKGRFTISRDNAKKTVYLQMNSLKPEDTAVYYCNDFSAYMGQYGYWGQGTQVTVSS
polyreactivity (PSR sort gate): high polyreactivity
--
BIOPOLYMER_SEQUENCE: QVQLVESGGGLVQAGGSLRLSCAASGSTFTRNAMGWYRQAPGKERELVAAISGGGGGSTYYADSVKGRFTISRDNAKNTVYLQMNSLKPEDTAVYYCAARAGRYWAAYGYWGQGTQVTVSS
polyreactivity (PSR sort gate): high polyreactivity
--
BIOPOLYMER_SEQUENCE: QVQLVESGGGLVQAGGSLRLSCAASGRTFDLYAMGWYRQAPGKERELVATISRTGSTNYADSVKGRFTISRDNAKNTVYLQMNSLKPEDTAVYYCNADVPVSRWLRHGYYTVGYDYWGQGTQVTVSS
polyreactivity (PSR sort gate): low polyreactivity
--
BIOPOLYMER_SEQUENCE: QVQLVESAAGLVQAGGSLRLSSAASGSIFGPYAMGWYRQAPGKERELVAVISSGDSTNYADSVKGRFTISRDNAKNTVYLQMNSLKPEDTAVYYCATRYLLYRGGHSLFYHFDYWGQGTQVTVSS
polyreactivity (PSR sort gate): low polyreactivity

Documented polyreactivity (PSR sort gate) of QVQLVESAGGLVQAGGSLRLSCAASGRIFSTYAMGWYRQAPGKERELVAAISWRGSSTYYADSVKGRFTISRDHAKNTVYLQMNSLKPEDTAVYYCNADKANRYDWGQGTQVTVSS : high polyreactivity
